List of EC50 (read off the curve) values.
- measurementTarget: T1, human ROR1 on cells (full-length human ROR1 on huROR1-HEK293 cells; human ROR1 on A549 and HT-29 tumor cells) (human, UniProt Q01973 30-937)
- T1 construct: whole, on cells; also called hROR1-HEK293T; A549 tumor cells
- T1 sequence (Q01973 30-937): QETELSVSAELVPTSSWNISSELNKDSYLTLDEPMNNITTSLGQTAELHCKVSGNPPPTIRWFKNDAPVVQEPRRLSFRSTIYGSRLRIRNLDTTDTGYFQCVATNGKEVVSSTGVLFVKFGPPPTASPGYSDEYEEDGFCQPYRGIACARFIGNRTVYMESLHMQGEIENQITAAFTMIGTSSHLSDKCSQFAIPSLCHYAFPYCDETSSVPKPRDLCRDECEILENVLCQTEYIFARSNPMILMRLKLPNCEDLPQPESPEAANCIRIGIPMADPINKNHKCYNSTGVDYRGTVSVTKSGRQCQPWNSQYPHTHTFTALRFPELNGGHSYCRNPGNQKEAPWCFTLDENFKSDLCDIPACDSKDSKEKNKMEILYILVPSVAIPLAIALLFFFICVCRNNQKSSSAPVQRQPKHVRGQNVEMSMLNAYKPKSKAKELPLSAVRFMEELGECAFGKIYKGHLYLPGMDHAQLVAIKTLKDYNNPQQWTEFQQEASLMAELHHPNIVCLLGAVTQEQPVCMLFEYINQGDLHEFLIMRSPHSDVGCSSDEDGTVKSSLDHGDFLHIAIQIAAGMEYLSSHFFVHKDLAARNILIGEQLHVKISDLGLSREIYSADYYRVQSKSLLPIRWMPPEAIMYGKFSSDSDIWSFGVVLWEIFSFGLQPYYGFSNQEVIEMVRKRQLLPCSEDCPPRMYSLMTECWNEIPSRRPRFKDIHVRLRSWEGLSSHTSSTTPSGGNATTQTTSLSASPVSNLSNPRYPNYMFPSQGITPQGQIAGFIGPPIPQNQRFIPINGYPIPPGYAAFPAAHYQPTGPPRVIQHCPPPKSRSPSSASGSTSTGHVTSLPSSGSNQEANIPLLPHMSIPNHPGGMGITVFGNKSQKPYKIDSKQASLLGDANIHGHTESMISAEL
- experimentDescription: flow cytometry (FACS) on A549 tumor cells, anti-human IgG-Fc secondary antibody, MFI

C42 (chimeric antibody) (antibody, human IgG1, kappa, V domains shown, ExpiCHO expression) VH: EVMLVESGGGLVKPGGSLKLSCAASGFTFSNYIMSWVRQTPEKRLEWVATINSGGTNTYYPDSVKGRFTISRDNAKNSLYLQMNSLRSEDTALYYCTRYNGNYVWFAYWGQGTLVTVSA VL: DIVLTQSPAIMSASPGEKVTMTCSASSSVSFIYWYQQKPGSSPRLLIYDTSNLASGVPVRFSGSGSGTSYSLTISRMEAEDAATYYCQQWSNYHFTFGSGTKLEIKR = ~0.03 mg/L

Reported EC50 (read off the curve) of C38 (chimeric antibody) (antibody, human IgG1, kappa, V domains shown, ExpiCHO expression) VH: EVMLVESGGGLVRPGGSLKLSCAASGFTFSSYAMSWVRQTPDKRLEWVASINRDVTTYYPDSVKGRFTISRDNARNILYLQMSSLRSEDTAMYYCARDYYYGSSLYYGMDYWGQGTSVTVSS VL: DIQMTQSPSSMHASLGERVTITCKASQDINNYVSWFQQKPGKSPKTLIYRANRLVDGVPSRFSGSGSGQDYSFTISSLEYEDMGIYYCLQFDEFPYTFGGGTKLEIKR : ~0.02 mg/L
